System: 922993-354-T-J3-PDC complex spheroids, viability, % test/control;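 also: spheroids exposed to the agents for 7 days before readout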
Assay: Anticancer human tumor 922993-354-T-J3-PDC patient-derived endometrial carcinoma cell line growth inhibition [CLK]
Settings: second compound 0.1 µM; first compound 0.01 µM; hits give low values
List of viability, T/C values.
Parameter: viability, T/C (%)

[[record]]
compound = "CCc1c2c(nc3ccc(O)cc13)-c1cc3c(c(=O)n1C2)COC(=O)[C@]3(O)CC + CNC(=O)c1ccc(Nc2nc(OC3CCCC3)c3c(-c4ccc5nc(C)oc5c4)c[nH]c3n2)c(OC)c1"
test_system = "922993-354-T-J3-PDC complex spheroids, viability, % test/control"
parameter = "viability, T/C"
unit_string = "%"
number = 79.2

[[record]]
compound = "CCN1CCN(Cc2ccc(Nc3ncc(F)c(-c4cc(F)c5nc(C)n(C(C)C)c5c4)n3)nc2)CC1 + CN1CCN(c2cc(C(=O)Nc3cc4cc(-c5cnn(C)c5)ccc4cn3)ccn2)CC1"
test_system = "922993-354-T-J3-PDC complex spheroids, viability, % test/control"
parameter = "viability, T/C"
unit_string = "%"
number = 91.8

[[record]]
compound = "CCc1c2c(nc3ccc(O)cc13)-c1cc3c(c(=O)n1C2)COC(=O)[C@]3(O)CC + CN1CCN(c2cc(C(=O)Nc3cc4cc(-c5cnn(C)c5)ccc4cn3)ccn2)CC1"
test_system = "922993-354-T-J3-PDC complex spheroids, viability, % test/control"
parameter = "viability, T/C"
unit_string = "%"
number = 66.9


Data origin: PubChem BioAssay AID2060606
